System: L1210 leukemia ip in BDF1 mice, survival T/C
Assay: NCI In Vivo Anticancer Drug Screen. Data for tumor model L1210 Leukemia (intraperitoneal) in B6D2F1 (BDF1) mice
Conditions: endpoint: mean survival time; dose: 200.0 mg/kg/injection; schedule: Q01DX009 (ip); vehicle: Klucel (hydroxypropylcellulose) (HPC); higher = longer survival
Procedure: The antitumor activity of compounds was measured in mice bearing transplantable tumors. Survival or tumor size were measured and the results are expressed as the measurement made in the treated group (T) divided by the measurement made in the vehicle treated control group (C). The tumor model used in this assay is L1210 Leukemia (intraperitoneal) in B6D2F1 (BDF1) mice
Toxic doses and inconclusive results are not listed.
MEASURE: T/C

Known T/C results, listed for orientation:
{"COMPOUND": "Cc1cc(=O)n2c3c(c(N)ccc13)OC2", "T/C": "97 % of control"}
{"COMPOUND": "Cc1ccc(OC(=O)/C=C/C(=O)Oc2ccc(C)cc2)cc1", "T/C": "95 % of control"}
{"COMPOUND": "O=C(Nc1cccc2ccccc12)c1ccc(Cl)c(Cl)c1", "T/C": "100 % of control"}

Exam item: Fill: T/C (L1210 leukemia ip in BDF1 mice, survival T/C) for this compound `CC(C)N(C(=O)COc1ccc(Cl)cc1)c1ccccc1`
Marked response: 92 % of control

Exam item: Fill: T/C (L1210 leukemia ip in BDF1 mice, survival T/C) for this compound CC1C(=O)CC2C3(C)CCC2(C(C)C(=O)O)C(=O)C13 (stereo unspecified)
Marked response: 100 % of control

Exam item: Fill: T/C (L1210 leukemia ip in BDF1 mice, survival T/C) for this compound `CC(=O)c1ccc(CC23CC4CC(CC(C4)C2)C3)cc1`
Marked response: 90 % of control

Exam item: Fill: T/C (L1210 leukemia ip in BDF1 mice, survival T/C) for this compound CC(C)OC(CCCl)c1ccccc1 (stereo unspecified)
Marked response: 96 % of control

Exam item: Fill: T/C (L1210 leukemia ip in BDF1 mice, survival T/C) for this compound `C[C@]12CC[C@H]3[C@@H](CC[C@]4(O)C[C@@H](O)CC[C@]34C=O)[C@@]1(O)CC[C@@H]2C1=CC(=O)OC1`
Marked response: 112 % of control

Exam item: Fill: T/C (L1210 leukemia ip in BDF1 mice, survival T/C) for this compound Cc1cccc(C)c1N1C(=O)CC(Sc2ccccc2N)C1=O (stereo unspecified)
Marked response: 88 % of control

Exam item: Fill: T/C (L1210 leukemia ip in BDF1 mice, survival T/C) for this compound `CCCCCCOC(=O)CCCCCCCCCCC(=O)CCCCCC`
Marked response: 92 % of control

Exam item: Fill: T/C (L1210 leukemia ip in BDF1 mice, survival T/C) for this compound CC(C)C(CCN1CCCC1)(C(N)=O)c1cccc2ccccc12 (stereo unspecified)
Marked response: 112 % of control
